Biological target: Neu5Ac(a2-8)Neu5Ac
Test: glycan array binding signal (z-score within array); higher = stronger binding
Conditions: glycan notation: IUPAC condensed, linker removed
The sample as a whole holds a higher share of the strongest signals than the screen did.
value-kind: glycan array binding signal (z-score)

>>> measured("MRCL (Homo sapiens), NP_872425.1 (protein) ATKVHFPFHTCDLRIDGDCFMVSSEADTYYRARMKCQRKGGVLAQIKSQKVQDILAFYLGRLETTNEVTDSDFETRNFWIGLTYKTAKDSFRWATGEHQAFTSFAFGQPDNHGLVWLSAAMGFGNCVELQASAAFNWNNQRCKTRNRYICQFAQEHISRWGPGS")
-0.294
>>> measured("BDCA-2 (Homo sapiens), Q8WTT0 (protein) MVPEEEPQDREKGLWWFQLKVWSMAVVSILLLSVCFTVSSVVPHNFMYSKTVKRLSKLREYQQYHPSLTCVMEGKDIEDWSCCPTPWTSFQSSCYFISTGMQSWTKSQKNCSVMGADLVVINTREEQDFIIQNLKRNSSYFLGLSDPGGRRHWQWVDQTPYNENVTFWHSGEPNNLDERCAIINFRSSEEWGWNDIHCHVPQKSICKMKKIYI")
-0.243
>>> measured("Gal 4 (Homo sapiens), Q8K419 (protein) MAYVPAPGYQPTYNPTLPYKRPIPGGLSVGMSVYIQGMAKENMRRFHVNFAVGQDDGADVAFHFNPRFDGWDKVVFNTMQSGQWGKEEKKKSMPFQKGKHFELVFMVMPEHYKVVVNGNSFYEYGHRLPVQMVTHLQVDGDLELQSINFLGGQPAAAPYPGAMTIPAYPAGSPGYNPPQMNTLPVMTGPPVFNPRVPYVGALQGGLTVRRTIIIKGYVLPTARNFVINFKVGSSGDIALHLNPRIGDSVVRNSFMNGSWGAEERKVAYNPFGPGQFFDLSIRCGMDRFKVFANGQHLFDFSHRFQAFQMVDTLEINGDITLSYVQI")
-0.203
>>> measured("IRP60A (Homo sapiens), Q9UGN4 (protein) MWLPWALLLLWVPGCFALSKCRTVAGPVGGSLSVQCPYEKEHRTLNKYWCRPPQIFLCDKIVETKGSAGKRNGRVSIRDSPANLSFTVTLENLTEEDAGTYWCGVDTPWLRDFHDPVVEVEVSVFPASTSMTPASITAAKTSTITTAFPPVSSTTLFAVGATHSASIQEETEEVVNSQLPLLLSLLALLLLLLVGASLLAWRMFQKWIKAGDHSELSQNPKQAATQSELHYANLELLMWPLQEKPAPPREVEVEYSTVASPREELHYASVVFDSNTNRIAAQRPREEEPDSDYSVIRKT")
5.86
>>> measured("SEX4 (Arabidopsis thaliana), Q944A8 (protein) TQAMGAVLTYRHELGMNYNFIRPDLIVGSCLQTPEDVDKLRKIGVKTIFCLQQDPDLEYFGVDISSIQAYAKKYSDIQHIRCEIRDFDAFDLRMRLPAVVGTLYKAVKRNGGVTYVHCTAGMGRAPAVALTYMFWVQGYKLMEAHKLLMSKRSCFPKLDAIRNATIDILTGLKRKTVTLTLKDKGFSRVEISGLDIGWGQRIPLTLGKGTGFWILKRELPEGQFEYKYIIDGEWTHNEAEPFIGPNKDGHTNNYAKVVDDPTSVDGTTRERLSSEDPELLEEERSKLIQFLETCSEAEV")
-0.065
